- system: T1, T4 (Tn-MUC1) (PAPGSTAPPAHGVT(α-GalNAc)SAPDTRPAPG-OH)
- T1 peptide: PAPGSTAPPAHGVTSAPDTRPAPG
- method-summary: glycopeptide array
quantity: EC50 (µg/mL)
Numbers only; they are read as µg/mL.

| binder | quantity | experimental-result |
| --- | --- | --- |
| 21 (antibody, V domains shown) VH: QVQLVQSGAEVRKPGASVKFSCKASGYSFTHYYVHWVRQAPGQGLEWMGVINPFDSSTNYARKFQGRVTMTRDTSTTTVYMDLSSLRSEDTAVYFCARDAMEGDSYFDYWGQGTLVTVSS | EC50 | 0.051 |

Consider the binder 86 (antibody, V domains shown) VH: QVQLVQSGAEVKKPGASVKVSCKASGYPFINYYIQWVRQAPGQGLEWMGVINPFDGSTNYAQKFQGRVTVTRDTSTSTVFMDLSSLRSEDTAVYYCARDNMIGYVLFDYWGQGTLVTVSS and give its measured EC50.
0.057

For the binder shown here, 13 (antibody, V domains shown) VH: QVQLVQSGAEVKKPGASLKVSCKASGYTFTNYYIQWVRQAPGQGLEWMGVINPYDGSTNYAQKFQGRVTLTRDTSTTTVYMELSSLRSDDTAVYYCARDYMIGYVVFDYWGQGTLVTVSS , give the reported EC50.
0.153

Reported EC50, binder 41 (antibody, V domains shown) VH: QVQLVQSGAEVKEPGASMTLSCKTSGYTFISNYIHWLRQAPGQGLEWLGVINPFGGATNYAQKFQGRVTMTRDTSTITVYMELSSLRSEDTAVYYCARDAMGGDSHFDYWGQGTLVTVSS : ____
0.1

Tell me the measured EC50 of 53 (antibody, V domains shown) VH: QVQLVQSGAEVKKPGASMTVSCKTSGYTFISYYIHWLRQAPGQGLEWLGVINPFGGATNYAQKFQGRVTMTRDTSTITVYMELSSLRSEDTAVYYCARDAMGGDSHFDFWGQGTLVTVSS , please.
0.112

Find the recorded EC50 belonging to 150 (antibody, V domains shown) VH: QVQLVQSGAEVKTPGASVKVSCKASGYTFTNYYIQWVRQAPGQALEWMGVINPYDGSTHYAQKFQGRVTLTRDTSTTTVYMDLSSLRSEDAAVYYCARDYMLGYVVFDYWGQGTLVTVSS and report it.
0.126

Entry 37 (antibody, V domains shown) VH: QVQLVQSGAEVKKPGASVTVSCKTSGYTFTSYYIHWLRQAPGQGLEWMGVINPFGGATNYAQKFQGRVTMTRDTSTITVYMELSSLRSEDTAVYYCARDAMGGDSHFDHWGRGTLVTVSS has what EC50?
0.157

I am curious: what EC50 value has been reported for 25 (antibody, V domains shown) VH: QVQLVESGAEVKKPGASVKVSCKASGYTFARYYVHWVRQAPGQGLEWMGLINPYGGATNYAQNFQGRVTMTRDTSTSTVYMELSSLRSEDTAVYYCARDAMGGDSYFDYWGQGTLVTVSS ?
0.1

Which EC50 value is on record for 142 (antibody, V domains shown) VH: QVQLVQSGAEVKKPGASVMLSCKASGYIFTSYYIQWVRQAPGQGLEWMGVVNPYDGSTNYAQKFQGRVSITRDTSTSTVFMELNSLRSEDTAVYYCARDSMLGHVIFDFWGQGTLVTVSS ?
0.089

Endpoint output: EC50 of 138 (antibody, V domains shown) VH: QVQLVQSGAEVKKPGASVRVSCKASGYTFINYYLQWVRQAPGQGLEWMGTINPFDGSTHYAQKFQGRVTMTRDTSTSTVYMELSSLRSEDTAVYYCARDSMIGYVLFDYWGQGTLVTVSS . Value?
0.116
